Target: T1, Domain I+II of 3D7 PfAMA1 (residue 104-442), immobilised for SPR (Plasmodium falciparum 3D7, UniProt Q7KQK5 104-442)
T1 sequence (looked up): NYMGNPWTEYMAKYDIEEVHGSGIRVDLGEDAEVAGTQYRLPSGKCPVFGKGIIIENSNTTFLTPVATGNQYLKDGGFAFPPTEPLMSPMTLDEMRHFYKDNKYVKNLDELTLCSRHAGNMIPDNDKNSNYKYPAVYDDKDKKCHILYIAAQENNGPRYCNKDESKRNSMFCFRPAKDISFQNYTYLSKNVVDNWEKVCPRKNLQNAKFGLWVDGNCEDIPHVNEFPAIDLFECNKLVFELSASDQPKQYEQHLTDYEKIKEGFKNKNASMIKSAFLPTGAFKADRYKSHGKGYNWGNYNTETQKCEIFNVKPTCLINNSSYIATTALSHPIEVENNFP
Experiment: SPR
Details: both partners purified
pKd: −log10 of the molar value.
propertyMeasured: pKd

INSERT INTO assay_data (binder, inequalitysign, resultnumber) VALUES
  ('Ac-FLPLFSKFGSRM-NH2 (source: synthetic peptide (Mimotopes)) [R1_(5-16)]', '=', 5.74),
  ('Ac-FLPLFSKFGSAM-NH2 (source: synthetic peptide (Mimotopes)) [R1_(5-16) R15A]', '<', 4.00),
  ('Ac-FLALFSKFGSRM-NH2 (source: synthetic peptide (Mimotopes)) [R1_(5-16) P7A]', '=', 4.21),
  ('Ac-FLPLFAKFGSRM-NH2 (source: synthetic peptide (Mimotopes)) [R1_(5-16) S10A]', '=', 5.32),
  ('Ac-FAPLFSKFGSRM-NH2 (source: synthetic peptide (Mimotopes)) [R1_(5-16) L6A]', '=', 4.22),
  ('Ac-FLPLFSKFGARM-NH2 (source: synthetic peptide (Mimotopes)) [R1_(5-16) S14A]', '=', 5.48),
  ('Ac-FLPLFSKFASRM-NH2 (source: synthetic peptide (Mimotopes)) [R1_(5-16) G13A]', '=', 4.41),
  ('Ac-FLPLFSAFGSRM-NH2 (also called Lys11Ala mutant; source: synthetic peptide (Mimotopes)) [R1_(5-16) K11A]', '=', 4.57),
  ('Ac-FLPLFSKAGSRM-NH2 (source: synthetic peptide (Mimotopes)) [R1_(5-16) F12A]', '=', 4.06),
  ('Ac-FLPLFSKFGSRA-NH2 (source: synthetic peptide (Mimotopes)) [R1_(5-16) M16A]', '=', 5.57);
